- Test system: Staphylococcus aureus
- protocol: Antibacterial activity against Methicillin-resistant Staphylococcus aureus N315 assessed as inhibition of bacterial growth incubated for 24 hrs by Muller hinton broth based dilution assay
- Format: functional
observable: MIC (µg/mL)
Reply with just the number (in µg/mL).

**Q:** Missing value: MIC, Staphylococcus aureus, entry O=C(O)c1cn(C2CC2)c2cc(N3CCNCC3)c(F)cc2c1=O . Fill in?
**A:** 0.39

**Q:** Missing value: MIC, Staphylococcus aureus, entry CC(C)=CCn1c2ccccc2c2c(OCC(O)CN(C)C)cccc21 (centres undefined) . Fill in?
**A:** 6.25

**Q:** Missing value: MIC, Staphylococcus aureus, entry CN[C@H](CC(C)C)C(=O)N[C@H]1C(=O)N[C@@H](CC(N)=O)C(=O)N[C@H]2C(=O)N[C@H]3C(=O)N[C@H](C(=O)N[C@H](C(=O)O)c4cc(O)cc(O)c4-c4cc3ccc4O)[C@H](O)c3ccc(c(Cl)c3)Oc3cc2cc(c3O[C@@H]2O[C@H](CO)[C@@H](O)[C@H](O)[C@H]2O[C@H]2C[C@](C)(N)[C@H](O)[C@H](C)O2)Oc2ccc(cc2Cl)[C@H]1O . Fill in?
**A:** 1.56

**Q:** Missing value: MIC, Staphylococcus aureus, entry CCCn1c2ccccc2c2c(OCC(O)CN(Cc3ccccn3)Cc3ccccn3)cccc21 (centres undefined) . Fill in?
**A:** 1.56

**Q:** Missing value: MIC, Staphylococcus aureus, entry CCCCCCCn1c2ccccc2c2c(OCC(O)CN(Cc3ccccn3)Cc3ccccn3)cccc21 (centres undefined) . Fill in?
**A:** 1.56

**Q:** Missing value: MIC, Staphylococcus aureus, entry CCCCCCCCCn1c2ccccc2c2c(OCC(O)CN(Cc3ccccn3)Cc3ccccn3)cccc21 (centres undefined) . Fill in?
**A:** 0.78

----------
Give MIC for every item shown.
- Tested on: Escherichia coli
- protocol: Antibacterial activity Escherichia coli ATCC 25922 assessed as inhibition of bacterial growth incubated for 24 hrs by Muller hinton broth based dilution assay
- Format: functional

**Q:** Can you look up the measured MIC of CN[C@H](CC(C)C)C(=O)N[C@H]1C(=O)N[C@@H](CC(N)=O)C(=O)N[C@H]2C(=O)N[C@H]3C(=O)N[C@H](C(=O)N[C@H](C(=O)O)c4cc(O)cc(O)c4-c4cc3ccc4O)[C@H](O)c3ccc(c(Cl)c3)Oc3cc2cc(c3O[C@@H]2O[C@H](CO)[C@@H](O)[C@H](O)[C@H]2O[C@H]2C[C@](C)(N)[C@H](O)[C@H](C)O2)Oc2ccc(cc2Cl)[C@H]1O for me?
**A:** > 50 µg/mL

**Q:** Can you look up the measured MIC of FC(F)(F)CCCn1c2ccccc2c2c(OCC3CO3)cccc21 (stereo not drawn) for me?
**A:** > 50 µg/mL

**Q:** Can you look up the measured MIC of CC(C)=CCn1c2ccccc2c2c(OCC3CO3)cccc21 (stereo not drawn) for me?
**A:** > 50 µg/mL

**Q:** Can you look up the measured MIC of OC(COc1cccc2c1c1ccccc1n2CCCC(F)(F)F)CN(Cc1ccccn1)Cc1ccccn1 (stereo not drawn) for me?
**A:** 12.5 µg/mL

**Q:** Can you look up the measured MIC of CCCn1c2ccccc2c2c(OCC3CO3)cccc21 (stereo not drawn) for me?
**A:** > 50 µg/mL

**Q:** Can you look up the measured MIC of CCCCCCCn1c2ccccc2c2c(OCC(O)CN(Cc3ccccn3)Cc3ccccn3)cccc21 (stereo not drawn) for me?
**A:** > 50 µg/mL

**Q:** Can you look up the measured MIC of CCCCCn1c2ccccc2c2c(OCC(O)CN(Cc3ccccn3)Cc3ccccn3)cccc21 (stereo not drawn) for me?
**A:** 6.25 µg/mL

**Q:** Can you look up the measured MIC of CCN(CC)CC(O)COc1cccc2c1c1ccccc1n2CC=C(C)C (stereo not drawn) for me?
**A:** > 50 µg/mL

----------
Give MIC for every item shown.
- Tested on: Acinetobacter baumannii
- protocol: Antibacterial activity against Acinetobacter baumannii R2889 assessed as inhIbition of bacterial growth incubated for 24 hrs in the presence of 12.5 ug/mL Zn2+ by Muller hinton broth based dilution assay
- Format: functional
Reply with just the number (in µg/mL).

**Q:** Can you look up the measured MIC of O=C(O)c1cn(C2CC2)c2cc(N3CCNCC3)c(F)cc2c1=O [CIPROFLOXACIN] for me?
**A:** 0.78

**Q:** Can you look up the measured MIC of OC(COc1cccc2c1c1ccccc1n2CCCC(F)(F)F)CN(Cc1ccccn1)Cc1ccccn1 (stereo unspecified) for me?
**A:** 3.12

**Q:** Can you look up the measured MIC of CCCCCCCn1c2ccccc2c2c(OCC(O)CN(Cc3ccccn3)Cc3ccccn3)cccc21 (stereo unspecified) for me?
**A:** 25

**Q:** Can you look up the measured MIC of Cn1c2ccccc2c2c(OCC(O)CN(Cc3ccccn3)Cc3ccccn3)cccc21 (stereo unspecified) for me?
**A:** 25

**Q:** Can you look up the measured MIC of CCN(CC)CC(O)COc1cccc2c1c1ccccc1n2CC=C(C)C (stereo unspecified) for me?
**A:** 25

**Q:** Can you look up the measured MIC of CCCCCn1c2ccccc2c2c(OCC(O)CN(Cc3ccccn3)Cc3ccccn3)cccc21 (stereo unspecified) for me?
**A:** 3.12

**Q:** Can you look up the measured MIC of CC(C)=CCn1c2ccccc2c2c(OCC(O)CN(Cc3ccccn3)Cc3ccccn3)cccc21 (stereo unspecified) for me?
**A:** 1.56

**Q:** Can you look up the measured MIC of CCCn1c2ccccc2c2c(OCC(O)CN(Cc3ccccn3)Cc3ccccn3)cccc21 (stereo unspecified) for me?
**A:** 6.25

**Q:** Can you look up the measured MIC of CC(C)=CCn1c2ccccc2c2c(OCC(O)CN(C)C)cccc21 (stereo unspecified) for me?
**A:** 12.5

----------
- Test system: Escherichia coli
- protocol: Antibacterial activity Escherichia coli ATCC 25922 assessed as inhibition of bacterial growth incubated for 24 hrs by Muller hinton broth based dilution assay
- Assay type: functional
Give MIC for every item shown.

**Q:** Can you look up the measured MIC of c1ccc2c(c1)[nH]c1cccc(OCC3CO3)c12 (stereo not drawn) for me?
**A:** > 50 µg/mL

**Q:** Can you look up the measured MIC of Cn1c2ccccc2c2c(OCC3CO3)cccc21 (stereo not drawn) for me?
**A:** > 50 µg/mL

**Q:** Can you look up the measured MIC of CCCCCCCCCn1c2ccccc2c2c(OCC3CO3)cccc21 (stereo not drawn) for me?
**A:** > 50 µg/mL

----------
Give MIC for every item shown.
- Tested on: Acinetobacter baumannii
- protocol: Antibacterial activity against Acinetobacter baumannii ATCC 17978 assessed as inhIbition of bacterial growth incubated for 24 hrs by Muller hinton broth based dilution assay
- Type: functional

**Q:** Can you look up the measured MIC of CCCCCCCCCn1c2ccccc2c2c(OCC3CO3)cccc21 (stereo unspecified) for me?
**A:** > 50 µg/mL

**Q:** Can you look up the measured MIC of CCCCCCCn1c2ccccc2c2c(OCC3CO3)cccc21 (stereo unspecified) for me?
**A:** > 50 µg/mL

**Q:** Can you look up the measured MIC of CCCCCCCCCn1c2ccccc2c2c(OCC(O)CN(Cc3ccccn3)Cc3ccccn3)cccc21 (stereo unspecified) for me?
**A:** > 50 µg/mL

**Q:** Can you look up the measured MIC of CCCCCn1c2ccccc2c2c(OCC3CO3)cccc21 (stereo unspecified) for me?
**A:** > 50 µg/mL

**Q:** Can you look up the measured MIC of Cn1c2ccccc2c2c(OCC3CO3)cccc21 (stereo unspecified) for me?
**A:** > 50 µg/mL

**Q:** Can you look up the measured MIC of CC(C)=CCn1c2ccccc2c2c(OCC(O)CNCc3ccccn3)cccc21 (stereo unspecified) for me?
**A:** > 50 µg/mL

**Q:** Can you look up the measured MIC of CCCn1c2ccccc2c2c(OCC3CO3)cccc21 (stereo unspecified) for me?
**A:** > 50 µg/mL

**Q:** Can you look up the measured MIC of c1ccc2c(c1)[nH]c1cccc(OCC3CO3)c12 (stereo unspecified) for me?
**A:** > 50 µg/mL

**Q:** Can you look up the measured MIC of CCCCCCCn1c2ccccc2c2c(OCC(O)CN(Cc3ccccn3)Cc3ccccn3)cccc21 (stereo unspecified) for me?
**A:** > 50 µg/mL

**Q:** Can you look up the measured MIC of CC(C)=CCn1c2ccccc2c2c(OCC3CO3)cccc21 (stereo unspecified) for me?
**A:** > 50 µg/mL

**Q:** Can you look up the measured MIC of FC(F)(F)CCCn1c2ccccc2c2c(OCC3CO3)cccc21 (stereo unspecified) for me?
**A:** > 50 µg/mL
